AC50 reference
ASSAY TARGET: PKR WT (Homo sapiens, UniProt P30613)
Sequence (P30613 whole entry): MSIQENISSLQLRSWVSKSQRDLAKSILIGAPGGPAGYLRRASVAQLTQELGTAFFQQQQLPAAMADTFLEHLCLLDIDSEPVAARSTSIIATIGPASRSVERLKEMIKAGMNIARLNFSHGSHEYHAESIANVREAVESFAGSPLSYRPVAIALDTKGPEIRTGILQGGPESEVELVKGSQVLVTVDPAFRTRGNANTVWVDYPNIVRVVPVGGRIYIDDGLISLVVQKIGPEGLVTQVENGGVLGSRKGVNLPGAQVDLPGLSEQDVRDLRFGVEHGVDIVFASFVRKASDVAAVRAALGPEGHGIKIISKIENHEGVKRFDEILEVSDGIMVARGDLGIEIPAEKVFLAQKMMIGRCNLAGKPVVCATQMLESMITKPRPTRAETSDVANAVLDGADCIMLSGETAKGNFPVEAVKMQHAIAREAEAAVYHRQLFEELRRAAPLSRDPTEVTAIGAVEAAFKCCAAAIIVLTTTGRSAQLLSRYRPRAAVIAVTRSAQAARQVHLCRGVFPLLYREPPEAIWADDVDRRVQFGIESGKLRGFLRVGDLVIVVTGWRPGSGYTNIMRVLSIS
MEASUREMENT NOTES: PKR WT enzymatic AC50 assay
Format: biochemical
REPORTED CONDITIONS: wild type PKR

Solved cases (3 shown):
| COMPOUND | ASSAY TARGET | AC50 |
| --- | --- | --- |
| Cc1cc(F)ccc1C1(O)CCN(C(=O)c2ccc(NS(=O)(=O)c3cccc4cccnc34)cc2)CC1 [Compound 138] | PKR WT (Homo sapiens, UniProt P30613) | < 100 nM |
| O=C(c1ccc(NS(=O)(=O)c2cccc3cccnc23)cc1)N1CCC(O)(c2cccc(OC(F)(F)F)c2)CC1 [Compound 245] | PKR WT (Homo sapiens, UniProt P30613) | 101 to 1000 nM |
| O=C(c1ccc(NS(=O)(=O)c2cccc3cccnc23)cc1)N1CCC(O)(c2ccccc2F)CC1 [Compound 165] | PKR WT (Homo sapiens, UniProt P30613) | < 100 nM |

Provide one value: measured AC50 of O=C(c1ccc(NS(=O)(=O)c2cccc3ocnc23)cc1)N1CCC(O)(c2ccccc2Cl)CC1 [Compound 381]
< 100 nM

Provide one value: measured AC50 of Nc1nc2c(S(=O)(=O)Nc3ccc(C(=O)N4CCC(O)(/C=C/CC(F)(F)F)CC4)cc3)cccc2s1 [Compound 425]
< 100 nM

Provide one value: measured AC50 of O=C(c1ccc(NS(=O)(=O)c2cccc3scnc23)cc1)N1CCC(O)(c2ccccc2-c2ccccc2Cl)CC1 [Compound 271]
101 to 1000 nM

Provide one value: measured AC50 of CC(C)CC1(O)CCN(C(=O)c2ccc(NS(=O)(=O)c3cccc4csnc34)cc2)CC1 [Compound 257]
101 to 1000 nM

---

ASSAY TARGET: PKR R510Q (Homo sapiens, UniProt P30613, R510Q)
Sequence (P30613 whole entry R510Q): as the sequence (P30613 whole entry) above, with R510Q counted along it
MEASUREMENT NOTES: PKR Mutant Assay, AC50 against PKR R510Q
Type: biochemical
REPORTED CONDITIONS: mutant PKR R510Q enzyme
AC50 reference

Solved cases (3 shown):
| COMPOUND | AC50 |
| --- | --- |
| O=C(c1ccc(NS(=O)(=O)c2cccc3cccnc23)cc1)N1CCC(O)(c2cccc(F)c2F)CC1 | < 100 nM |
| O=C(c1ccc(NS(=O)(=O)c2cccc3cccnc23)cc1)N1CCC(O)(c2ccnc(F)c2)CC1 | 1010 to 10000 nM |
| CC(C)CC1(CO)CCN(C(=O)c2ccc(NS(=O)(=O)c3cccc4nccnc34)cc2)CC1 | 101 to 1000 nM |

Provide one value: measured AC50 of Cc1nc(F)ccc1C1(O)CCN(C(=O)c2ccc(NS(=O)(=O)c3ccc(F)c4cccnc34)cc2)CC1
101 to 1000 nM

Provide one value: measured AC50 of Cc1cccnc1C1(O)CCN(C(=O)c2ccc(NS(=O)(=O)c3cccc4cccnc34)cc2)CC1
101 to 1000 nM

---

ASSAY TARGET: PKR WT (Homo sapiens, UniProt P30613)
MEASUREMENT NOTES: PKR WT enzymatic AC50 assay
Format: biochemical
REPORTED CONDITIONS: wild type PKR
AC50 reference

Solved cases (5 shown):
| COMPOUND | AC50 |
| --- | --- |
| CC(C)CC1(O)CCN(C(=O)c2ccc(NS(=O)(=O)c3cccc4ocnc34)cc2)CC1 [Compound 379] | 101 to 1000 nM |
| CCOC(=O)C1(CC(C)C)CCN(C(=O)c2ccc(NS(=O)(=O)c3cccc4cccnc34)cc2)CC1 [Compound 250] | 101 to 1000 nM |
| O=C(c1ccc(NS(=O)(=O)c2cccc3cccnc23)cc1)N1CCC(O)(CCO)CC1 [Compound 274] | 101 to 1000 nM |
| CCCCC1(O)CCN(C(=O)c2ccc(NS(=O)(=O)c3cccc4cccnc34)cc2)CC1 [Compound 167] | < 100 nM |
| O=C(c1ccc(NS(=O)(=O)c2cccc3ncccc23)cc1)N1CCC(O)(c2ccccc2)CC1 [Compound 300] | 1010 to 10000 nM |

Kindly review the next compound as well.
Provide one value: measured AC50 of O=C(c1ccc(N[S+]([O-])c2cccc3cccnc23)cc1)N1CCC(O)(c2ccccc2Cl)CC1 (stereo not drawn) [Compound 311]
1010 to 10000 nM

---

ASSAY TARGET: PKR R532W (Homo sapiens, UniProt P30613, R532W)
Sequence (P30613 whole entry R532W): as the sequence (P30613 whole entry) above, with R532W counted along it
MEASUREMENT NOTES: PKR Mutant Assay, AC50 against PKR R532W
Format: biochemical
REPORTED CONDITIONS: mutant PKR R532W enzyme
ASSAY METRIC: AC50

Solved cases (5 shown):
| STRUCTURE | AC50 |
| --- | --- |
| O=C(c1ccc(NS(=O)(=O)c2cccc3nccnc23)cc1)N1CCC(O)(CCCC(F)F)CC1 | < 100 nM |
| O=C(c1ccc(NS(=O)(=O)c2cccc3c2OCCC3)cc1)N1CCC(O)(c2ccccc2Cl)CC1 | < 100 nM |
| O=C(c1ccc(NS(=O)(=O)c2cccc3cccnc23)cc1)N1CCC(O)(Cc2cccc(F)c2)CC1 | < 100 nM |
| Nc1c(O)cccc1S(=O)(=O)Nc1ccc(C(=O)N2CCC(O)(c3ccccc3Cl)CC2)cc1 | 101 to 1000 nM |
| Cc1cc(NS(=O)(=O)c2cccc3cccnc23)ccc1C(=O)N1CCC(O)(c2ccccc2Cl)CC1 | < 100 nM |

Provide one value: measured AC50 of CNc1nc2c(S(=O)(=O)Nc3ccc(C(=O)N4CCC(O)(CC(C)C)CC4)cc3)cc(Cl)cc2s1
< 100 nM

Provide one value: measured AC50 of O=C(c1ccc(NS(=O)(=O)c2cccc3c(O)ncnc23)cc1)N1CCC(O)(CCC(F)(F)F)CC1
101 to 1000 nM

---

ASSAY TARGET: PKR R532W (Homo sapiens, UniProt P30613, R532W)
MEASUREMENT NOTES: PKR Mutant Assay, AC50 against PKR R532W
Format: biochemical
REPORTED CONDITIONS: mutant PKR R532W enzyme
Description: • PKR or PKR mutant enzyme solution was diluted in assay buffer. • 2 μL of test compound was added into wells first, and then 180 μL reaction mix was added. • Reactions mixture with test compound was assembled except for ADP, and plates were stored for 60 minutes at room temperature. • 20 uL ADP was added to start reaction at room temperature and reaction progress was measured as changes in absorbance at 340 nm wavelength at room temperature. […]
AC50 reference

Solved cases (3 shown):
| COMPOUND | AC50 |
| --- | --- |
| O=C(c1ccc(NS(=O)(=O)c2ccc(F)c3scnc23)cc1)N1CCC(O)(c2ccccc2Cl)CC1 [Compound 231] | 101 to 1000 nM |
| O=C(c1ccc(NS(=O)(=O)c2cccc3cccnc23)c2ccccc12)N1CCC(O)(c2ccccc2Cl)CC1 | < 100 nM |
| O=C(c1ccc(NS(=O)(=O)c2cccc3cccnc23)cc1)N1CCC(O)(CC2CCC2)CC1 | < 100 nM |

Provide one value: measured AC50 of O=C(c1ccc(NS(=O)(=O)c2cccc3cccnc23)cc1)N1CCC(O)(Cc2c(F)cccc2F)CC1
< 100 nM

---

AC50 reference
ASSAY TARGET: PKR R510Q (Homo sapiens, UniProt P30613, R510Q)
MEASUREMENT NOTES: PKR Mutant Assay, AC50 against PKR R510Q
Assay type: biochemical
REPORTED CONDITIONS: mutant PKR R510Q enzyme

| STRUCTURE | AC50 |
| --- | --- |
| O=C(c1ccc(NS(=O)(=O)c2cccc3scnc23)cc1)N1CCC(O)(COCC(F)(F)F)CC1 | 101 to 1000 nM |

Provide one value: measured AC50 of Cc1cccc(CC2(O)CCN(C(=O)c3ccc(NS(=O)(=O)c4cccc5cccnc45)cc3)CC2)n1
101 to 1000 nM

Provide one value: measured AC50 of Cc1cc(C(=O)N2CCC(O)(c3ccccc3Cl)CC2)ccc1NS(=O)(=O)c1cccc2cccnc12
< 100 nM

Provide one value: measured AC50 of O=C(c1ccc(NS(=O)(=O)c2cccc3cccnc23)cc1)N1CCC(CO)(c2ccccc2)CC1
1010 to 10000 nM

Provide one value: measured AC50 of O=C(c1ccc(NS(=O)(=O)c2cccc3c2OC(F)(F)O3)cc1)N1CCC(O)(c2ccccc2Cl)CC1
> 10000 nM

Provide one value: measured AC50 of C=C(CC1(O)CCN(C(=O)c2ccc(NS(=O)(=O)c3cccc4scnc34)cc2)CC1)C(F)(F)F
< 100 nM

Provide one value: measured AC50 of O=C(c1ccc(NS(=O)(=O)c2ccc(F)c3cccnc23)cc1)N1CCC(O)(CC2CCC2)CC1
101 to 1000 nM

---

AC50 reference
ASSAY TARGET: PKR WT (Homo sapiens)
MEASUREMENT NOTES: PKR WT enzymatic AC50 assay
Format: biochemical
REPORTED CONDITIONS: wild type PKR

Solved cases (3 shown):
| COMPOUND | MEAS VALUE |
| --- | --- |
| CC1(CC2(O)CCN(C(=O)c3ccc(NS(=O)(=O)c4cccc5cccnc45)cc3)CC2)CC1 | < 100 nM |
| O=C(c1ccc(NS(=O)(=O)c2cccc3nsnc23)cc1)N1CCC(O)(c2ccccc2)CC1 | 1010 to 10000 nM |
| O=C(c1ccc(NS(=O)(=O)c2csc3cccnc23)cc1)N1CCC(O)(c2ccccc2Cl)CC1 | 101 to 1000 nM |

Provide one value: measured AC50 of Cc1ccc(C2(O)CCN(C(=O)c3ccc(NS(=O)(=O)c4cccc5cccnc45)cc3)CC2)c(Cl)c1
< 100 nM

These measurements were taken from patent US9108921B2.
